Experiment: yeast display, Sf9 membrane polyspecificity reagent, FACS + sequencing; frameworks hold sequencing errors
experimental_readout: polyreactivity (PSR sort gate)

* QVQLVESGGGLVQAGGSLRLSCAASGSIFEIYAMGWYRQAPGKERQLVASITWSGGSTYYADSVKGRFTISRDNAKNTVYLQMNSLKPEDTAVYYCATDKLYGRTVRMDYWGQGTQVTVSS | low polyreactivity
* QVQLVESGGGLVQAGGSLRLSCAASGSTFPYYAMGWYRQAPGKERELVASIRKRGGGTYYADSVKGRFTISRDNAKNTVYLQMNSLKPEDTAVYYCAVRVYQFRYTGYDYWGQGTQVTVSS | high polyreactivity
* QLQLVESGGGLVQAGGSLRLSCAASGRNFGYNAMGWYRPAPGKERELVAVINIDGSTNYADSVKGRFTISRDNAKNTVYLQLNSLNPEDTAVYYCAARYWKSYRNGGFFGFTYYYWGQGTQVTVSS | high polyreactivity
* QVQLVESGGGLVQAGGSLRLSCAASGFTFVYYVMGWYRQAPGKERELVAAINAGGGSTYYADSVKGRFTISRDNAKNTVYLQMNSLKPEDTAVYYCNARVRVRLGRNWSSYDYWGQGSQVTVSS | high polyreactivity
* QVQLVESGGGLVQAGGSLRLSCAASGRILRYNAMGWYRQAPGKERELVASISGNGGSTYYADSVKGRFTISRDNAKNTVYLQMNSLKPEDTAVYYCNKYYYSSRGQKEYDYWGQGTQVTVSS | low polyreactivity
* QVQLVESGGGLVQAGGSLRLSCAASGSTFTYYAMGWYRQAPGKEREWVAAISGGGDTYYADSVKGRFTISRDNAKNTVYLQMTSLKPEDTAVYYCNARVWAKSPRGSQYNMYDYWGQGTQVTVSS | high polyreactivity
* QVQLVESGGGLVQAGGSLRLSCAASGSTIYPYAMGWYRQAPGKERELVAAISSGGRTYYADSEKGRFTISRDKAKNTVYLQMNSLKPEDPAVYYCAARVTKKYRRTYDYWGQGTQVTVSS | high polyreactivity
* QVQLVESGGGLVQAGGSLRLSCAASGRTFKDYAMGWYRPAPGKERELVAAISWSGGDTYYADSVKGRFTISRDNAKNTVYLQMNSLKPEDTAVYYCNADPSGVFFYSLEFDYWGQGTQVTVSS | low polyreactivity
* QVQLVESGGGLVQAGGSLRLSCAASGYIFRYYAMGWYRQAPGKERELVAAISWNGGRTYYADSVKGRFTISRDNAKNTVYLQMNSLKPEDTAVYYCAARYWGDYFTEMNYWGQGTQVTVSS | high polyreactivity
* QVQHVESGGCLVQAGGSLRLSCAASGRIFRGYAMGWYRQAPGKERELVAAISSRGSTYYADSVKGRFTNSRDNAKNTVYLQMNSLKPEDTAVYYCAKSEYARLSGFRYRTGYNYWGQGTQVTVSS | high polyreactivity

Here is another sequence to look at.
Request: In one line, give reported polyreactivity (PSR sort gate) of the entry QVQLVESGGGLVQAGGSLRLSCAASGSTFSHYAMGWYRQAPGKERELVAAISTSGGSTYYADSVKGRFTISRDNAKNTVYLQMNSLKPEDTAVYYCAAAVPRQGNYGGYEYWGQGSQVTVSS .
Response: high polyreactivity

###

Experiment: yeast display, Sf9 membrane polyspecificity reagent, FACS + sequencing; frameworks hold sequencing errors
experimental_readout: polyreactivity (PSR sort gate)

* QVQLVDSGVGLVQAGGSLRLSCAASGRIFSVYAMGRYRHAPGKERELVASISSGGSTNYADSVKGRFTISRDNAKNTVYLQMNSLKPEDTAVYYCAADYWYRLFWYYGAPLDYWGLGTQVTVSS | low polyreactivity
* QVQLVESGGGLVQAGGSLRLNCAASGSIFGQYTMGWYRQAPGKERELVADITSGGSTYYADSVKGRFTISRDNAKNTVYLQMNSLKPEDPAVYYCAAVDWKAHWEMGYWGQGTQVTVSS | low polyreactivity
